IC50 values by entry
# Tested on: L. donovani promastigotes (MHOM/NP/02/BPK282/0cl4)
# protocol-notes: Promastigote growth inhibition assay (alamarBlue)
# Assay type: cell-based
# test-conditions: Leishmania donovani, HOMEM with 10% FBS
Give the value; after it, write the unit.

Here are 3 compounds together with their reported answers.
In [3]: df
Out[3]:
                                   compound   result
0  CO[C@]1(C)OCC(c2ccccc2)(c2ccccc2)C[C@@H]1CNCCCn1ccnc1 (racemic)  3200 nM
1  CCCCC1(CCCC)CO[C@@](C)(OC)[C@@H](CNCCCn2ccnc2)C1 (racemic)  1900 nM
2  CCCCC1(CCCC)C[C@H](CNCCCn2ccnc2)[C@](C)(OC)OO1  2700 nM

Now consider the entry below.
Which IC50 reading was recorded for the compound CO[C@]1(C)OOC(c2ccccc2)(c2ccccc2)C[C@@H]1CNCCCn1ccnc1 ?
1200 nM
